Values were extracted from PubChem BioAssay AID1996.

Reported values of solubility kinetic for individual entries
details: buffer; pH 7.4; 200.0 µM
QUANTITY_NAME: solubility kinetic (mg/mL)

1) S=C(NCc1ccco1)NCC1CCCO1 (stereo not given) : 0.0348
2) Cc1cc(OCCCN2CCCC2)ccc1Cl : 0.0268
3) Cc1ccc(-c2onc3ccc(C(=O)/C=C/N(C)C)cc23)cc1 : 0.0023
4) COCCNC(=O)c1ccc(CSc2nc3ccccc3s2)cc1 : 0.0276
5) Cc1ccc2[nH]cc(CCNC(=O)c3ccc4c(c3)OCO4)c2c1 : 0.0383
6) CSc1ncccc1C(=O)Nc1nc(C(C)(C)C)cs1 : 0.0376
7) COc1ccc(Nc2ccc([N+](=O)[O-])cn2)cc1 : 0.003
8) CNC(=S)N1CCN(c2nc3ccccc3s2)CC1 : 0.004
9) O=C1c2ccccc2-c2ccc(C(=O)N3CCCCC3)cc21 : 0.019
10) Cc1ccc(CNC(=O)CCc2cn(C)c3ccccc23)cc1 : 0.0051
11) CC(=O)c1ccc(S(=O)(=O)N2CCN(CC#N)CC2)cc1 : 0.0458
12) O=C(Nc1ccc(Nc2ccccc2)cc1)c1ccc(Cl)cc1 : 0.0004
13) Cc1ccc(C)c(Nc2ccc3nonc3c2[N+](=O)[O-])c1 : 0.002
